# SYSTEM: NMDA receptors
# ASSAY: [3H]CGP-39653 saturation binding, spinal cord membranes
# TEST_CONDITIONS: normal rat whole spinal cord; one-site binding
EXPERIMENTAL_ENDPOINT: pKd
API: returns pKd as number; meaning -log10 of concentration in mol/L.

Req: Given CCC/C(=C\C(N)C(=O)O)CP(=O)(O)O (racemic) [[^3 H]CGP-39653] , state its recorded pKd.
Resp: 7.89

* * *

# SYSTEM: NMDA receptors
# ASSAY: [3H]CGP-39653 saturation binding, cortical membranes
# TEST_CONDITIONS: normal rat cortex; one-site binding
EXPERIMENTAL_ENDPOINT: Kd (nM)
Response body: numeric value in nM, unit text excluded.

Req: Given CCC/C(=C\C(N)C(=O)O)CP(=O)(O)O (racemic) [[^3 H]CGP-39653] , state its recorded Kd.
Resp: 15.4
